assayed_system: T1, extracellular domain (ECD) of human αKlotho, amino acids E34-S981 with C-terminal 6-His tag (R&D Systems … (human, UniProt Q9UEF7 34-981))
T1 construct: range 34-981; also called αKlotho (aa34-981); target antigen
T1 sequence: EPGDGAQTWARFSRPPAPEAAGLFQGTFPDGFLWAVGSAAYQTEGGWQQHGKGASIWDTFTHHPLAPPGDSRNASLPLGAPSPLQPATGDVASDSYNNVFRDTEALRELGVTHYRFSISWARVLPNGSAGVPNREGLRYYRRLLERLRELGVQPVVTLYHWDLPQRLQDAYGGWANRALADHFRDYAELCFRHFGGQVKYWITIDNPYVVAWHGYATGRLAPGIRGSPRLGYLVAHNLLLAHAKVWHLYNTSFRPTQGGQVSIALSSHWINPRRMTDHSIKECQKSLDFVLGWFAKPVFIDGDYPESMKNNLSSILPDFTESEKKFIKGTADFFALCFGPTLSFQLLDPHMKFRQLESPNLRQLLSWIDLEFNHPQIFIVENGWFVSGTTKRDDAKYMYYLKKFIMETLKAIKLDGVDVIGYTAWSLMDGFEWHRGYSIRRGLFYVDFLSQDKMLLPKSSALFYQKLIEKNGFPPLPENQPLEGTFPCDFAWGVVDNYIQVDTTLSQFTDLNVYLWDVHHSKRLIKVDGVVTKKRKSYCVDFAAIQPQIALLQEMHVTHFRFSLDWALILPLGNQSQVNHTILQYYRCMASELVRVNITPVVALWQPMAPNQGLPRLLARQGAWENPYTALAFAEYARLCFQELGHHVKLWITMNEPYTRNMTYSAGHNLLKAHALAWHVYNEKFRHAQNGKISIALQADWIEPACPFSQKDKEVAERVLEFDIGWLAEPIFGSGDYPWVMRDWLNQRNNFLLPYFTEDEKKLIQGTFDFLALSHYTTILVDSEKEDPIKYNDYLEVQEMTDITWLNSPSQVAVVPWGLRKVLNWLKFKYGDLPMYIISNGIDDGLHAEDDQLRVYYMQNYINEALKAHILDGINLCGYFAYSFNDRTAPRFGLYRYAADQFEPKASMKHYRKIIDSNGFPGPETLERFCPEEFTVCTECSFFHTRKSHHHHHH
test: SPR, Fab captured by anti-H+L IgG, αKlotho injected at 50 to 6.25 ug/ml, Langmuir fit [continued]
Assignment: determine reported kon for the given binders.
Your answer should be a plain number; it is taken to be in M⁻¹ s⁻¹.

Req: Determine from records and report kon for anti-αKlotho Fab clone 4823 (Fab, V domains shown, Fab (also as Fab-phage); FLAG tag on light chain; also called sb192) VH: EVQLVESGGGLVQPGGSLRLSCAASGFNFSSSSIHWVRQAPGKGLEWVAYIYSSYGYTYYADSVKGRFTISADTSKNTAYLQMNSLRAEDTAVYYCARAAHYGYYVHSGLDYWGQGTLVTVSS VL: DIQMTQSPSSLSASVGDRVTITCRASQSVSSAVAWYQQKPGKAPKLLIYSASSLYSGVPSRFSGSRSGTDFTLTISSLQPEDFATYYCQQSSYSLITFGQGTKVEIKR
Resp: 750000

Req: Determine from records and report kon for anti-αKlotho Fab clone 4812 (Fab, V domains shown, Fab (also as Fab-phage); FLAG tag on light chain; also called sb181) VH: EVQLVESGGGLVQPGGSLRLSCAASGFNLSSYSMHWVRQAPGKGLEWVASISSYSGYTSYADSVKGRFTISADTSKNTAYLQMNSLRAEDTAVYYCARSYSWWWSVSYAMDYWGQGTLVTVSS VL: DIQMTQSPSSLSASVGDRVTITCRASQSVSSAVAWYQQKPGKAPKLLIYSASSLYSGVPSRFSGSRSGTDFTLTISSLQPEDFATYYCQQGYWLFTFGQGTKVEIK
Resp: 493000
